Parameter Measured: MIC
Phrase the answer as number then unit, nothing more needed.

Fill in the recorded MIC for this compound, with S. aureus ATCC29213 as test system: C=C[C@](C)(/C=C/c1ccc(OCCCCNCCN(CCN)CCN)cc1)CCC=C(C)C
0.78 µg/mL

Form entry - test system: S. aureus ATCC29213; read-out: MIC; compound: C=C[C@@](C)(/C=C/c1ccc(OCCCCN(C)C)cc1)CCC=C(C)C
1.56 µg/mL

# query: MIC | item C=C[C@](C)(/C=C/c1ccc(OCC(=O)N[C@@H](CCCNC(=N)N)C(=O)N[C@@H](CCCNC(=N)N)C(=O)N2CCN(c3ccc(N4C[C@H](CNC(C)=O)OC4=O)cc3F)CC2)cc1)CCC=C(C)C | system: S. aureus ATCC29213
0.78 µg/mL

Request: MIC, test system S. aureus ATCC29213, entry C=C[C@@](C)(/C=C/c1ccc(OCCCCNCC)cc1)CCC=C(C)C
1.56 µg/mL

Give recorded MIC with S. aureus ATCC29213 for the following compound: C=C[C@@](C)(/C=C/c1ccc(OCCCCN2CCCC2)cc1)CCC=C(C)C
1.56 µg/mL

Missing value: MIC, S. aureus ATCC29213, entry C=C[C@@](C)(/C=C/c1ccc(OCCCCN)cc1)CCC=C(C)C . Fill in?
1.56 µg/mL

Look up MIC with S. aureus ATCC29213 for this compound: C=C[C@](C)(/C=C/c1ccc(OCC(=O)N[C@@H](CCCNC(=N)N)C(=O)N[C@@H](CCCNC(=N)N)C(N)=O)cc1)CCC=C(C)C
1.56 µg/mL

Can you look up MIC on S. aureus ATCC29213 for C=C[C@](C)(/C=C/c1ccc(OCC(=O)N[C@@H](CCCNC(=N)N)C(=O)N[C@@H](CCCNC(=N)N)C(=O)OC)cc1)CCC=C(C)C ?
0.78 µg/mL

----------
For each of the compounds below, state its MIC.
test system: Gram-positive bacteria; assay: Antibacterial activity against Gram-positive bacteria (MIC summary); type: cell-based; details: 24 h; summary of tables 1 and 2; read-out: minimum inhibitory concentration (MIC) against Gram-positive bacteria
Where a SMILES comes first, the peptide text is derived from it. The star is where a group is joined. X1 = C=C[C@](C)(/C=C/c1ccc(OCC(=O)*)cc1)CCC=C(C)C

Which MIC is reported for this compound? C=C[C@@](C)(/C=C/c1ccc(OCCCCNCCCC)cc1)CCC=C(C)C
0.39 to 3.12 µg/mL

MIC lookup needed for C=C[C@@](C)(/C=C/c1ccc(OCCCCNCC)cc1)CCC=C(C)C , thanks.
0.39 to 3.12 µg/mL

I would be grateful if you could share the reported MIC for C=C[C@@](C)(/C=C/c1ccc(OCCCCCCCCN(CC)CC)cc1)CCC=C(C)C .
0.39 to 3.12 µg/mL

Item C=C[C@](C)(/C=C/c1ccc(OCC(=O)N[C@@H](CCCNC(=N)N)C(=O)N[C@@H](CCCNC(=N)N)C(=O)N[C@@H](CCCNC(=N)N)C(=O)N[C@@H](CCCNC(=N)N)C(=O)OC)cc1)CCC=C(C)C [Compound 60] (X1-RRRR-OMe) has what recorded MIC?
0.39 to 3.12 µg/mL

For the compound shown here, C=C[C@](C)(/C=C/c1ccc(OCC(=O)N[C@@H](CCCNC(=N)N)C(=O)NCCCN(CC)CC)cc1)CCC=C(C)C , give the reported MIC.
0.39 to 3.12 µg/mL

Entry under review: C=C[C@](C)(/C=C/c1ccc(OCC(=O)N[C@@H](CCCNC(=N)N)C(=O)N[C@@H](CCCNC(=N)N)C(=O)N2CCN(c3ccc(N4C[C@H](CNC(C)=O)OC4=O)cc3F)CC2)cc1)CCC=C(C)C . Reported MIC?
0.39 to 3.12 µg/mL

Item under review: C=C[C@@](C)(/C=C/c1ccc(OCCCCN(C)CCCNC)cc1)CCC=C(C)C . Reported MIC?
0.39 to 3.12 µg/mL
